Listed next: entries and their corresponding FOLD INHIBITION RELATIVE TO SOLVENT CONTROL, hGH.
- Tested on: human growth hormone (532) promoter
- TEST_DETAILS: High-throughput luciferase reporter assay, human Growth Hormone promoter (Screen III)
- Type: cell-based
- TEST_PARAMETERS: Screen III inhibitors; 532 cells; 6 hours
Give a bare numeral; the unit fold is implied.

Below: 3 molecules and their reported FOLD INHIBITION RELATIVE TO SOLVENT CONTROL, hGH.
                            smiles_notation     u  observed_result
0  O=S(=O)(O)c1ccc(-c2ccnc(-c3nnc(-c4ccc(S(=O)(=O)O)cc4)c(-c4ccc(S(=O)(=O)O)cc4)n3)c2)cc1  fold             7.69
1                            OCc1cccc(Cl)c1  fold             0.40
2                     O=C(c1ccccc1)c1ccncc1  fold             1.08

Checklist item: FOLD INHIBITION RELATIVE TO SOLVENT CONTROL, hGH tested on human growth hormone (532) promoter, entry O=c1[nH]c(=O)c2nc3ccccc3nc2[nH]1 , value? 5.26

Another molecule to look at: c1ccc(-c2nccnc2-c2ccccn2)nc1 5.55

Again, but for O=C(O)c1ccc(Br)o1 7.14
